# System: TNF-α
# experiment_summary: TNF-α release from U937 cells (LPS-induced, DELFIA)
# Format: cell-based
# assay_conditions: Homo sapiens, U-937; PMA-pretreated U937 cells, 1 ng/ml LPS, 18 hours; read-out: IC50 LPS-induced TNF production in U937 cells
# Procedure: The effect of the compounds of the invention on TNF-α release was investigated using a known method (Lozanski, G. et al., (1992), J. Rheumatol; 19, 921-26). […] After 18 hours incubation at 37° C. with 5% CO2 the cell culture supernatants were harvested and stored at −70° C., until required for determination of TNF-α secretion by Dissociation Enhanced Lanthanide Fluorescence Immuno Assay (DELFIA). […]
# IC50 per record follows
Give just the number in nM; leave the unit off.

# given_smiles, units_label, IC50
rows = [
    ("C/C=C/[C@@H]1OC(=O)C=C[C@@H]1C(=O)/C=C/C(C)=C/[C@@H](C)CCCCCC", "nM", 80),
]

We now examine a further molecule.
Inquiry: Checklist item: IC50 tested on TNF-α, entry "CCCCCC[C@H](C)/C=C(C)/C=C/C(=O)[C@H]1C=CC(=O)O[C@H]1/C=C/C(=O)O" , value?
Reply text: 2000
